- Assay remarks: Bioavailability / pharmacokinetic study in male rats (IV and PO)
- Format: in vivo
- Reported conditions: male, rat, plasma, po, 5 mg/kg, PO 5 mg/kg, pro-drug measured when dosed as pro-drug
Property measured: Tmax (min)

1 = CC(C)[C@H](N)C(=O)N[C@H]1CCN[C@@](CCCCB(O)O)(C(=O)O)C1
2 = NCC(=O)N[C@H]1CCN[C@@](CCCCB(O)O)(C(=O)O)C1
[in] Form: Entry with minimum Tmax (choose one): 1 / 2 Selection: enter the item's label.
[out] 1
(1: 15 min, 2: 45 min)

----------
- Assay remarks: Bioavailability / pharmacokinetic study in male rats (IV and PO)
- Type: in vivo
- Reported conditions: male, rat, plasma, po, 5 mg/kg, PO 5 mg/kg vs IV 2 mg/kg, pro-drug measured when dosed as pro-drug
Property measured: bioavailability (%)

P = CC(C)[C@H](N)C(=O)N[C@H]1CCN[C@@](CCCCB(O)O)(C(=O)O)C1 [Example 2]
Q = NCC(=O)N[C@H]1CCN[C@@](CCCCB(O)O)(C(=O)O)C1 [Example 3]
[in] I'd appreciate it if you could identify which of P and Q has the greater bioavailability. Respond using the label that marks the chosen record.
[out] Q
(Q: 5.2%, P: 2%)

----------
- Assay remarks: Bioavailability / pharmacokinetic study in male rats (IV and PO)
- Type: in vivo
- Reported conditions: plasma; male rat, IV 2 mg/kg; pro-drug measured when dosed as pro-drug; read-out: Vdss
Property measured: Vd (L/kg)

CC(C)[C@H](N)C(=O)N[C@H]1CCN[C@@](CCCCB(O)O)(C(=O)O)C1 0.25
NCC(=O)N[C@H]1CCN[C@@](CCCCB(O)O)(C(=O)O)C1 0.22

----------
- Assay remarks: Bioavailability / pharmacokinetic study in male rats (IV and PO)
- Type: in vivo
- Reported conditions: male, rat, plasma, po, 5 mg/kg, PO 5 mg/kg of Example 2, Example 1 measured when dosed as pro-drug
Property measured: AUC (µM·h)
Your answer is read as µM·h, so omit the unit and give the number.

[in] Provide one value: measured AUC of N[C@H]1CCN[C@@](CCCCB(O)O)(C(=O)O)C1
[out] 23.7

----------
- Target desc: Human Arginase 2 (Homo sapiens)
- Sequence (P78540 23-354): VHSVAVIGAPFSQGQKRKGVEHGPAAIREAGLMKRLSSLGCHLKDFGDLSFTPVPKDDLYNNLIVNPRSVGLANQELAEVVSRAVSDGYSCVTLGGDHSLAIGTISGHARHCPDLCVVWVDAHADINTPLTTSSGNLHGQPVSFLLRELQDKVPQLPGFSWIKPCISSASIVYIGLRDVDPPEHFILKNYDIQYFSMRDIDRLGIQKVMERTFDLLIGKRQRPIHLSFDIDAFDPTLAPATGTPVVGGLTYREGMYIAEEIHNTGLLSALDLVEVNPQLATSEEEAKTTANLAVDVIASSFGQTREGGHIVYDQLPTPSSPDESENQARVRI
- Assay remarks: Human Arginase 2 enzyme inhibition (thioarginine/DTNB absorbance at 412 nm)
- Reported conditions: recombinant enzyme from E. coli, 5 nM; 30 min pre-incubation, 60 min reaction
Property measured: IC50 (nM)

Molecule	Property measured	Scale unit	Test value
N[C@H]1CCN[C@@](CCCCB(O)O)(C(=O)O)C1 [Example 1]	IC50	nM	4
CC[C@H](C)[C@H](N)C(=O)N[C@H]1CCN[C@@](CCCCB(O)O)(C(=O)O)C1 [Example 7]	IC50	nM	21

a = N[C@H]1CCN[C@](CCCCB(O)O)(C(=O)O)C1 (single isomer, unassigned; enantiomer 2) [Example 11]
b = CC(C)C[C@H](N)C(=O)N[C@H]1CCN[C@@](CCCCB(O)O)(C(=O)O)C1 [Example 6]
[in] // select label with min value of measured IC50 from [ a , b ] Give the label of your selection.
[out] b
(b: 15 nM, a: 4370 nM)
